Assign inhibition to each entry below.
Molecular target: High affinity nerve growth factor receptor (Homo sapiens)
Assay: Binding affinity to TrkA at 10 uM
Answers are plain numbers, in %.

| Cpd Smiles | Experimental Result |
| --- | --- |
| O=C(O)CCCO/N=C/c1cc(C(=O)NOCCO)c(Nc2ccc(I)cc2F)c(F)c1F | 1 |
| O=C(NOCCO)c1cc(COCCO)c(F)c(F)c1Nc1ccc(I)cc1F | 27 |
| O=C(NOCCO)c1cc(/C=N/OCCO)c(F)c(F)c1Nc1ccc(I)cc1F | 0 |
| O=C(O)c1ccc(CO/N=C/c2cc(C(=O)NOCCO)c(Nc3ccc(I)cc3F)c(F)c2F)o1 | 0 |
| O=C(NOCCO)c1ccc(F)c(F)c1Nc1ccc(I)cc1F | 14 |

Now examine the next entry.
Lookup: Could you share which inhibition value was measured for COCCCNC(=O)N/N=C/c1cc(C(=O)NOCCO)c(Nc2ccc(I)cc2F)c(F)c1F ?
Found: 0

* * *

Dear all, this message contains pIC50 results, target or system Proto-oncogene tyrosine-protein kinase Src (Homo sapiens, UniProt P12931).
Give bare numbers, as −log10 of the molar value.

| Cpd Smiles | pIC50 |
| --- | --- |
| O=C(CS(=O)(=O)c1ccc(Cl)cc1)N/N=C/c1cc(C(=O)O)c(Nc2ccc(I)cc2F)c(F)c1F | 5.52 |

Next molecule, please.
Lookup: Provide the documented pIC50 with Proto-oncogene tyrosine-protein kinase Src (Homo sapiens, UniProt P12931) as the system for O=C(N/N=C/c1cc(C(=O)O)c(Nc2ccc(I)cc2F)c(F)c1F)c1ccc(CO)o1
Sequence (P12931 2-536 limits assumed): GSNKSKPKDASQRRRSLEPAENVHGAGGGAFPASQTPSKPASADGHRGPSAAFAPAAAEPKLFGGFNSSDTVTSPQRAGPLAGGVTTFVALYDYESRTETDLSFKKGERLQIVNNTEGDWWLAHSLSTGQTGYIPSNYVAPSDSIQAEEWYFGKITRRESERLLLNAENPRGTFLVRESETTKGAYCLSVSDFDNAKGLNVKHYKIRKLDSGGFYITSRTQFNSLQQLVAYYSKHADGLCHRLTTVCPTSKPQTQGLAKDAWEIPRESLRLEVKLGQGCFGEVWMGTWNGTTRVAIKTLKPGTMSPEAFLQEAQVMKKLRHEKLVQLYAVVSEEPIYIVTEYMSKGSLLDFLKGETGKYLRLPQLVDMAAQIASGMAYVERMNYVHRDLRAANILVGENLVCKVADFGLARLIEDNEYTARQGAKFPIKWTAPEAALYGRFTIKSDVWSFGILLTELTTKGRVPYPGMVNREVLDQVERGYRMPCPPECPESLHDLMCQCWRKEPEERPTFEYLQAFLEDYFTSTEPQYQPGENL
Found: 7.00

* * *

Assay: Binding affinity to MEK
Hi there, I'd appreciate the recorded pIC50 for every entry that follows.
Numbers only, as −log10 of the molar value.

| Molecule | pIC50 |
| --- | --- |
| Cc1cc(I)ccc1Nc1c(C(=O)O)ccc(F)c1F | 7.96 |

Next:
Lookup: // pIC50 lookup, key: O=C(O)c1ccc(F)c(F)c1Nc1ccc(I)cc1Cl [ZAPNOMETINIB]
Found: 8.24

* * *

Biological target: Mitogen-activated protein kinase kinase kinase 9 (Homo sapiens)
Sequence (P80192 whole entry): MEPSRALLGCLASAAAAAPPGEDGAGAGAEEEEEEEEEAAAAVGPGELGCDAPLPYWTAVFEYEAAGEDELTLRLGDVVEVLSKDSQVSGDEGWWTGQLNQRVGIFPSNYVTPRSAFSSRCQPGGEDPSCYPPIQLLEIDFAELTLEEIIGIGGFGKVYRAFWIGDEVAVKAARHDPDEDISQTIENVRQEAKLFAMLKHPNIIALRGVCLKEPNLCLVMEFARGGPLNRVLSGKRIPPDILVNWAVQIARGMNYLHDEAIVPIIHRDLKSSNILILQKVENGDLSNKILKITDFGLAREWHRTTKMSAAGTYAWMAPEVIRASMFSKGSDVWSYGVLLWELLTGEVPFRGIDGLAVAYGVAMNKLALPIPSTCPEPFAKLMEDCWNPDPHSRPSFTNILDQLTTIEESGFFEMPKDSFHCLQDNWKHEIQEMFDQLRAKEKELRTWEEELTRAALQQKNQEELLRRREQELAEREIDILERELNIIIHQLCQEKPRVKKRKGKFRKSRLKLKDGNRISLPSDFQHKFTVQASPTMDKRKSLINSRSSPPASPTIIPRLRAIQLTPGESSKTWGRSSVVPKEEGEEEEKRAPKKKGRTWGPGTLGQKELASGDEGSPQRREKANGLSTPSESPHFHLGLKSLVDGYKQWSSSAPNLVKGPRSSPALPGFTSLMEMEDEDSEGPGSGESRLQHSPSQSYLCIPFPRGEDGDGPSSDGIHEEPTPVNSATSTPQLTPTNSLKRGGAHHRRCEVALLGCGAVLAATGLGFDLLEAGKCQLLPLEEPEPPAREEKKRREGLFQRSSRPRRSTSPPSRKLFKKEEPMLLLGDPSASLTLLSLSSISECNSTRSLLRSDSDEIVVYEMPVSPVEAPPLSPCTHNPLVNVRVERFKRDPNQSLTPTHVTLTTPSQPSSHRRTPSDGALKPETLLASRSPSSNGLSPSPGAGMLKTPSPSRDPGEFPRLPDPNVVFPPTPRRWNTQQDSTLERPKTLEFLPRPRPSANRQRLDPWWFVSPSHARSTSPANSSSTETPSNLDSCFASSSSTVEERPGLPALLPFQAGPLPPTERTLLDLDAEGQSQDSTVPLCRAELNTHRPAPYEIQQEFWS
Assay: Binding affinity to MAP3K9
Property Name: IC50 (µM)
Give bare numbers, in µM.

| Cpd Smiles | IC50 (µM) |
| --- | --- |
| O=C(N/N=C/c1cc(C(=O)O)c(Nc2ccc(I)cc2F)c(F)c1F)c1ccc(CO)o1 | 4 |

Now let's try a different one.
Lookup: Dear colleague, I am looking for the recorded IC50 of the following compound: CS(=O)(=O)c1ccc(CNCc2cc(C(=O)O)c(Nc3ccc(I)cc3F)c(F)c2F)cc1
Found: 5

* * *

Target: UniProt:P29317
Sequence (P29317 whole entry): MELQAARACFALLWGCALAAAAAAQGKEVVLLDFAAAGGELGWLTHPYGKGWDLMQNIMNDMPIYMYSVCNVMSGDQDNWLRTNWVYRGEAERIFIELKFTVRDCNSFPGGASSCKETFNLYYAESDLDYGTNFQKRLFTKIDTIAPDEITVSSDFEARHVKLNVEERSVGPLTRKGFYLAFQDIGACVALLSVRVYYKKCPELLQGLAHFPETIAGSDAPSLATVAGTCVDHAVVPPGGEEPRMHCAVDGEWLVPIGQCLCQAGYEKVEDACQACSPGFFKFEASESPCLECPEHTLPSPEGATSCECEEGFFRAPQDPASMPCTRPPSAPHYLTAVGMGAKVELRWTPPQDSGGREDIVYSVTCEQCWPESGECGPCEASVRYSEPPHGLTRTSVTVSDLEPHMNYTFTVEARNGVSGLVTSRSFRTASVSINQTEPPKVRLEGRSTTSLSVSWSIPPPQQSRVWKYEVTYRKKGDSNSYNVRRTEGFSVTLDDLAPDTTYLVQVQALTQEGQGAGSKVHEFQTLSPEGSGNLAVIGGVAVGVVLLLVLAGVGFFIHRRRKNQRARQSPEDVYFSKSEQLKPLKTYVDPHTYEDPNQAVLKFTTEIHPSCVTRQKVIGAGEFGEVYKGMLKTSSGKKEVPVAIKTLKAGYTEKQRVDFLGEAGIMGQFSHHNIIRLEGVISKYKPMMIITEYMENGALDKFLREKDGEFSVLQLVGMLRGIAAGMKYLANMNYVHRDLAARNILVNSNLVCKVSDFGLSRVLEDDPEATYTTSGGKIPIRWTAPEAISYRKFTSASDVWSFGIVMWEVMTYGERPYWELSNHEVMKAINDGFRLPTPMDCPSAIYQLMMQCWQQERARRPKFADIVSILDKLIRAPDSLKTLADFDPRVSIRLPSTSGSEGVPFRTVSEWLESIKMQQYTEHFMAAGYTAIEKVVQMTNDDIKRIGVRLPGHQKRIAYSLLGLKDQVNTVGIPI
Experiment: Binding affinity to EPHA2 at 10 uM
inhibition of 20% or higher: Yes. Under 20%: No.

| Cpd Smiles | Assay System | Qualitative Label |
| --- | --- | --- |
| O=C(NOCCO)c1cc(COCCO)c(F)c(F)c1Nc1ccc(I)cc1F | UniProt:P29317 | No |
| O=C(O)c1ccc(CO/N=C/c2cc(C(=O)NOCCO)c(Nc3ccc(I)cc3F)c(F)c2F)o1 | UniProt:P29317 | Yes |
| O=C(NOCCO)c1ccc(F)c(F)c1Nc1ccc(I)cc1F | UniProt:P29317 | No |

Lookup: Please check the record O=C(O)CCCO/N=C/c1cc(C(=O)NOCCO)c(Nc2ccc(I)cc2F)c(F)c1F and state if its inhibition is at or above 20%.
Found: Yes

Lookup: Now this one: O=C(NOCCO)c1cc(/C=N/OCCO)c(F)c(F)c1Nc1ccc(I)cc1F
Found: No

Lookup: Quick one: COCCCNC(=O)N/N=C/c1cc(C(=O)NOCCO)c(Nc2ccc(I)cc2F)c(F)c1F
Found: No
